- Tested on: MDA-MB-231
- ASSAY OVERVIEW: Cell proliferation assay (CellTiter-Glo)
- Format: cell-based
- MEASUREMENT SETUP: Homo sapiens, Breast, 72 hours, 0.5% fetal bovine serum, read-out: antiproliferative activity IC50, MDA-MB-231
READOUT LABEL: IC50

CS(=O)(=O)N1CCN(Cc2cc3nc(-c4cccc5[nH]ncc45)nc(N4CCOCC4)c3s2)CC1 [GDC-0941, reference compound] :: > 10000 nM
COc1ncc(-c2nc(N3CCOCC3)c3sc(CN(C)c4ncc(C(=O)NO)cn4)cc3n2)cn1 :: 10 to 100 nM
CN(Cc1cc2nc(-c3cccc(CO)c3)nc(N3CCOCC3)c2s1)c1ncc(C(=O)NO)cn1 :: 10 to 100 nM
Cn1c(=O)n(-c2ccc(C(C)(C)C#N)cc2)c2c3cc(-c4cnc5ccccc5c4)ccc3ncc21 [BEZ-235, reference compound] :: > 10000 nM
Cc1ncc(-c2nc(N3CCOCC3)c3sc(CN(C)c4ncc(C(=O)NO)cn4)cc3n2)cn1 :: 10 to 100 nM
CN(Cc1cc2nc(-c3cccc(O)c3)nc(N3CCOCC3)c2s1)c1ncc(C(=O)NO)cn1 :: 10 to 100 nM

Then this compound:
Can you look up the measured IC50 of CN(Cc1cc2nc(-c3cccc4[nH]ncc34)nc(N3CCOCC3)c2s1)c1ncc(C(=O)NO)cn1 for me? 10 to 100 nM
